Task for the reader: assign each of the following molecules its reported log10 of MTD at 4 days.
Test: Determination of maximum tolerated dose (MTD), serum calcium / hypercalcemia
Details: female, C57BL/6, mouse, serum, po
Description: The maximum tolerated dose of the vitamin D3 compounds of the invention were determined in eight week-old female C57BL/6 mice (3 mice/group) dosed orally (0.1 ml/mouse) with various concentrations of Vitamin D3 analogs daily for four days. Analogs were formulated in miglyol for a final concentration of 0.01, 0.03, 0.1 0.3, 1, 3, 10, 30, 100 and 300 μg/kg when given at 0.1 ml/mouse p.o. daily. Blood for serum calcium assay was drawn by tail bleed on day five, the final day of the study.
Give log10 of MTD at 4 days, with MTD at 4 days taken in µg/kg.

Answer with the recorded log10 of MTD at 4 days of C=C1/C(=C\C=C2/CCC[C@@]3(C)C2CCC3C2(CCCC(C)(C)O)CC2)C[C@@H](OC(C)=O)C[C@@H]1OC(C)=O (stereo partly drawn) only.
1.48

Write down log10 of MTD at 4 days measured for item C=C1/C(=C\C=C2/CCC[C@]3(C)C(C(C)C/C=C/[C@@](C)(O)C(F)(F)F)=CCC23)CC(OC(C)=O)C[C@@H]1OC(C)=O (stereo partly drawn)
-0.52

# return recorded log10 of MTD at 4 days for input CC(=O)OC1C/C(=C/C=C2\CCC[C@]3(C)C(C(C)CCCC(C)(C)O)=CCC23)C[C@@H](OC(C)=O)C1 (stereo partly drawn)
0.48

Provide measured log10 of MTD at 4 days value, entry: C=C1/C(=C\C=C2/CCC[C@]3(C)[C@@H]([C@H](C)CCCC(C)(C)O)CC[C@@H]23)C[C@@H](O)C[C@@H]1O [1,25(OH)2D3, calcitriol, reference compound]
0.00

Please look at this molecule and report its log10 of MTD at 4 days: CC(=O)OC1C/C(=C/C=C2\CCC[C@@]3(C)C2CCC3C2(C/C=C\C(O)(C(F)(F)F)C(F)(F)F)CC2)C[C@@H](OC(C)=O)C1 (stereo partly drawn)
1.00

Determine its reported log10 of MTD at 4 days: C=C1/C(=C\C=C2/CCC[C@]3(C)C(C(C)C/C=C/C(C)(C)O)=CCC23)CC(OC(C)=O)C[C@@H]1OC(C)=O (stereo partly drawn)
0.48

Return the recorded log10 of MTD at 4 days value; entry: CC(=O)OC1C/C(=C/C=C2\CCC[C@]3(C)C(C(C)CC#CC(C)(C)O)=CCC23)C[C@@H](OC(C)=O)C1 (stereo partly drawn)
1.48

Give the reported log10 of MTD at 4 days for this molecule. C=C1/C(=C\C=C2/CCC[C@]3(C)C(C(C)CCCC(C)(C)O)=CCC23)CC(OC(C)=O)C[C@@H]1OC(C)=O (stereo partly drawn)
0.00

State, in one line, measured log10 of MTD at 4 days of CC(=O)OC1C/C(=C/C=C2\CCC[C@@]3(C)C2CCC3C2(CC#CC(C)(C)O)CC2)C[C@@H](OC(C)=O)C1 (stereo partly drawn)
2.00
